assayMethodText: In vivo rat PK: tafamidis in plasma, CSF and brain
Design: species or system Male Sprague-Dawley (SD) rats
settings: iv administration of test compound
Structures can show the parent of a compound that is named as a salt.
reportedEndpoint: Tafamidis CSF/Plasma Ratio (iv)

>>> print(df.to_string())
                                   compound                 reportedendpoint   reportedresult
0  CC(COC(=O)c1ccc2nc(-c3cc(Cl)cc(Cl)c3)oc2c1)CN(C)C (stereo not shown)  Tafamidis CSF/Plasma Ratio (iv)  A (A is <0.015)
1  CCN(C)CCCOC(=O)c1ccc2nc(-c3cc(Cl)cc(Cl)c3)oc2c1 [Compound 48, hydrochloride]  Tafamidis CSF/Plasma Ratio (iv)  A (A is <0.015)

====

assayMethodText: In vitro rat liver S9 stability assay, formation of tafamidis
Assay type: in vitro ADME
settings: rat liver S9, 37° C., 1 µM test compound
reportedEndpoint: Formation of tafamidis at 60 min

Some compounds with recorded Formation of tafamidis at 60 min:
>>> df
                                   compound        reportedresult
0  O=C(OC1CCCC1)c1ccc2nc(-c3cc(Cl)cc(Cl)c3)oc2c1  B (B is ≥25 to <50%)
1  O=C(OCCCn1ccnc1)c1ccc2nc(-c3cc(Cl)cc(Cl)c3)oc2c1         D (D is ≥75%)
2  CC(C)(C)N1CCC(OC(=O)c2ccc3nc(-c4cc(Cl)cc(Cl)c4)oc3c2)C1 (centres unmarked)         A (A is <25%)
3  CCN(CC)CCCOC(=O)c1ccc2nc(-c3cc(Cl)cc(Cl)c3)oc2c1         A (A is <25%)
4  O=C(c1ccc2nc(-c3cc(Cl)cc(Cl)c3)oc2c1)N1CCNCC1         A (A is <25%)

Return Formation of tafamidis at 60 min (reported value) for this compound: O=C(OC1CCCN(CC(F)F)C1)c1ccc2nc(-c3cc(Cl)cc(Cl)c3)oc2c1 (centres unmarked) C (C is ≥50 to <75%)

Return Formation of tafamidis at 60 min (reported value) for this compound: O=C(OC1CCn2cncc21)c1ccc2nc(-c3cc(Cl)cc(Cl)c3)oc2c1 (centres unmarked) C (C is ≥50 to <75%)

Return Formation of tafamidis at 60 min (reported value) for this compound: CNC(=O)c1ccc2nc(-c3cc(Cl)cc(Cl)c3)oc2c1 A (A is <25%)

Return Formation of tafamidis at 60 min (reported value) for this compound: CC(C)N1CCC(OC(=O)c2ccc3nc(-c4cc(Cl)cc(Cl)c4)oc3c2)C1 (centres unmarked) A (A is <25%)

Return Formation of tafamidis at 60 min (reported value) for this compound: CC1CCC(OC(=O)c2ccc3nc(-c4cc(Cl)cc(Cl)c4)oc3c2)C1 (centres unmarked) B (B is ≥25 to <50%)

Return Formation of tafamidis at 60 min (reported value) for this compound: O=C(OC1CCN(CCF)C1)c1ccc2nc(-c3cc(Cl)cc(Cl)c3)oc2c1 (centres unmarked) B (B is ≥25 to <50%)

Return Formation of tafamidis at 60 min (reported value) for this compound: CN1CC2CCC1CC2OC(=O)c1ccc2nc(-c3cc(Cl)cc(Cl)c3)oc2c1 (centres unmarked) A (A is <25%)

Return Formation of tafamidis at 60 min (reported value) for this compound: C[N+]1([O-])CCC(OC(=O)c2ccc3nc(-c4cc(Cl)cc(Cl)c4)oc3c2)C1 (centres unmarked) A (A is <25%)

====

assayMethodText: In vivo rat PK: tafamidis in plasma, CSF and brain
Parameters: species or system Male Sprague-Dawley (SD) rats
settings: po administration of test compound, over 24 hrs
Structures can show the parent of a compound that is named as a salt.
reportedEndpoint: Tafamidis CSF/Plasma Ratio over 24 hrs (po)

Some compounds with recorded Tafamidis CSF/Plasma Ratio over 24 hrs (po):
In [3]: df
Out[3]:
                                   compound            reportedresult
0  O=C(OC1CCN(Cc2ccccc2)C1)c1ccc2nc(-c3cc(Cl)cc(Cl)c3)oc2c1 (centres unmarked) [Compound 76]  B (B is ≥0.015 to <0.02)
1  O=C(OC1CCn2cncc21)c1ccc2nc(-c3cc(Cl)cc(Cl)c3)oc2c1 (centres unmarked) [Compound 156]  B (B is ≥0.015 to <0.02)
2  CS(=O)(=O)N1CCC(OC(=O)c2ccc3nc(-c4cc(Cl)cc(Cl)c4)oc3c2)C1 (centres unmarked) [Compound 139]          A (A is < 0.015)
3  CN1CC[C@@H](OC(=O)c2ccc3nc(-c4cc(Cl)cc(Cl)c4)oc3c2)C1 [Compound 59]  B (B is ≥0.015 to <0.02)
4  CC(C)N1CCC(OC(=O)c2ccc3nc(-c4cc(Cl)cc(Cl)c4)oc3c2)C1 (centres unmarked) [Compound 75]  B (B is ≥0.015 to <0.02)
5  O=C(OC1CCN(CC(F)F)C1)c1ccc2nc(-c3cc(Cl)cc(Cl)c3)oc2c1 (centres unmarked) [Compound 144]  B (B is ≥0.015 to <0.02)

Return Tafamidis CSF/Plasma Ratio over 24 hrs (po) (reported value) for this compound: CN1CC[C@H](OC(=O)c2ccc3nc(-c4cc(Cl)cc(Cl)c4)oc3c2)C1 [Compound 58, hydrochloride] A (A is < 0.015)

Return Tafamidis CSF/Plasma Ratio over 24 hrs (po) (reported value) for this compound: CCN(CC)CCCOC(=O)c1ccc2nc(-c3cc(Cl)cc(Cl)c3)oc2c1 [Compound 38] B (B is ≥0.015 to <0.02)

Return Tafamidis CSF/Plasma Ratio over 24 hrs (po) (reported value) for this compound: CC(Cn1ccnc1)OC(=O)c1ccc2nc(-c3cc(Cl)cc(Cl)c3)oc2c1 (centres unmarked) [Compound 170] A (A is < 0.015)

Return Tafamidis CSF/Plasma Ratio over 24 hrs (po) (reported value) for this compound: O=C(OC1CCCN(CC(F)F)C1)c1ccc2nc(-c3cc(Cl)cc(Cl)c3)oc2c1 (centres unmarked) [Compound 167] A (A is < 0.015)

Return Tafamidis CSF/Plasma Ratio over 24 hrs (po) (reported value) for this compound: CC(CN1CCOCC1)OC(=O)c1ccc2nc(-c3cc(Cl)cc(Cl)c3)oc2c1 (centres unmarked) [Compound 143] A (A is < 0.015)

Return Tafamidis CSF/Plasma Ratio over 24 hrs (po) (reported value) for this compound: CC(CN(C)C)OC(=O)c1ccc2nc(-c3cc(Cl)cc(Cl)c3)oc2c1 (single isomer, unassigned) [Compound 46] A (A is < 0.015)

Return Tafamidis CSF/Plasma Ratio over 24 hrs (po) (reported value) for this compound: Cn1ccc(COC(=O)c2ccc3nc(-c4cc(Cl)cc(Cl)c4)oc3c2)n1 [Compound 90] A (A is < 0.015)

Return Tafamidis CSF/Plasma Ratio over 24 hrs (po) (reported value) for this compound: O=C(OCCN1CCS(=O)(=O)CC1)c1ccc2nc(-c3cc(Cl)cc(Cl)c3)oc2c1 [Compound 79] A (A is < 0.015)

Return Tafamidis CSF/Plasma Ratio over 24 hrs (po) (reported value) for this compound: O=C(OCc1ncccn1)c1ccc2nc(-c3cc(Cl)cc(Cl)c3)oc2c1 [Compound 102] A (A is < 0.015)

Return Tafamidis CSF/Plasma Ratio over 24 hrs (po) (reported value) for this compound: O=C(OC1CCN(CC(F)(F)F)C1)c1ccc2nc(-c3cc(Cl)cc(Cl)c3)oc2c1 (centres unmarked) [Compound 151] B (B is ≥0.015 to <0.02)

====

assayMethodText: In vivo rat PK: tafamidis in plasma, CSF and brain
Design: species or system Male Sprague-Dawley (SD) rats
settings: iv administration of test compound
Where a name gives a salt, the structure may show the parent alone.
reportedEndpoint: Tafamidis CSF/Plasma Ratio (iv)

Some compounds with recorded Tafamidis CSF/Plasma Ratio (iv):
                                   compound            reportedresult
0  N[C@@H](Cc1ccc(OC(=O)c2ccc3nc(-c4cc(Cl)cc(Cl)c4)oc3c2)cc1)C(=O)O [Compound 23, hydrochloride]  B (B is ≥0.015 to <0.02)
1  CN(C)CCCOC(=O)c1ccc2nc(-c3cc(Cl)cc(Cl)c3)oc2c1 [Compound 1]  B (B is ≥0.015 to <0.02)
2  CN1CCC(OC(=O)c2ccc3nc(-c4cc(Cl)cc(Cl)c4)oc3c2)CC1 [Compound 11]  B (B is ≥0.015 to <0.02)
3  CN1C[C@H](OC(=O)c2ccc3nc(-c4cc(Cl)cc(Cl)c4)oc3c2)[C@@H](O)C1 [Compound 57]  B (B is ≥0.015 to <0.02)
4  O=C(OCCCN1CCCC1)c1ccc2nc(-c3cc(Cl)cc(Cl)c3)oc2c1 [Compound 40]  B (B is ≥0.015 to <0.02)

Return Tafamidis CSF/Plasma Ratio (iv) (reported value) for this compound: CC(CN(C)C)OC(=O)c1ccc2nc(-c3cc(Cl)cc(Cl)c3)oc2c1 (single isomer, unassigned) [Compound 46] C (C is ≥0.02)

Return Tafamidis CSF/Plasma Ratio (iv) (reported value) for this compound: O=C(OCCN1CCC1)c1ccc2nc(-c3cc(Cl)cc(Cl)c3)oc2c1 [Compound 36] A (A is <0.015)

Return Tafamidis CSF/Plasma Ratio (iv) (reported value) for this compound: CN1CCC(OC(=O)c2ccc3nc(-c4cc(Cl)cc(Cl)c4)oc3c2)C(F)(F)C1 (stereo not shown) [Compound 14] B (B is ≥0.015 to <0.02)

Return Tafamidis CSF/Plasma Ratio (iv) (reported value) for this compound: CN1CCC(COC(=O)c2ccc3nc(-c4cc(Cl)cc(Cl)c4)oc3c2)C1 (stereo not shown) [Compound 60] B (B is ≥0.015 to <0.02)

Return Tafamidis CSF/Plasma Ratio (iv) (reported value) for this compound: N[C@@H](Cc1cccc(OC(=O)c2ccc3nc(-c4cc(Cl)cc(Cl)c4)oc3c2)c1)C(=O)O [Compound 28, hydrochloride] A (A is <0.015)

Return Tafamidis CSF/Plasma Ratio (iv) (reported value) for this compound: O=C(OCCN1CCCC1)c1ccc2nc(-c3cc(Cl)cc(Cl)c3)oc2c1 [Compound 37] A (A is <0.015)

Return Tafamidis CSF/Plasma Ratio (iv) (reported value) for this compound: CCN(CC)CCCOC(=O)c1ccc2nc(-c3cc(Cl)cc(Cl)c3)oc2c1 [Compound 38] B (B is ≥0.015 to <0.02)

Return Tafamidis CSF/Plasma Ratio (iv) (reported value) for this compound: O=C(OC1CCNCC1)c1ccc2nc(-c3cc(Cl)cc(Cl)c3)oc2c1 [Compound 13, hydrochloride] B (B is ≥0.015 to <0.02)

Return Tafamidis CSF/Plasma Ratio (iv) (reported value) for this compound: O=C(OCCCN1CCCCC1)c1ccc2nc(-c3cc(Cl)cc(Cl)c3)oc2c1 [Compound 41] C (C is ≥0.02)

Return Tafamidis CSF/Plasma Ratio (iv) (reported value) for this compound: CC(CCN(C)C)OC(=O)c1ccc2nc(-c3cc(Cl)cc(Cl)c3)oc2c1 (stereo not shown) [Compound 49, hydrochloride] C (C is ≥0.02)

Return Tafamidis CSF/Plasma Ratio (iv) (reported value) for this compound: CCN(CC)CCOC(=O)c1ccc2nc(-c3cc(Cl)cc(Cl)c3)oc2c1 [Compound 35, hydrochloride] B (B is ≥0.015 to <0.02)
